The reported measurements were obtained from ChEMBL document CHEMBL4689842.

system: Fibroblast; assay: Multiplex assay against human fibroblast; type: toxicity, cell-based; settings: 12 h, 1 µM, compound concentration 1 uM, replicate 1
Items are presented alongside their recorded Population Hoechst High Intensity Objects (%).
State the result as a value with its unit after it.

The following compounds have reported results that may help.
CC(C)c1cc(Nc2nc(N3CCC[C@H](N)C3)ncc2C(N)=O)cc(C(C)C)n1 :: 13%
Oc1cccc(-c2nc(N3CCOCC3)c3oc4ncccc4c3n2)c1 [PI-103] :: 12%
CC(Cc1ccc(O)c(O)c1)C(C)Cc1ccc(O)c(O)c1 (stereo not given) [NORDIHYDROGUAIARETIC ACID] :: 5%
Cc1c(Nc2ccc(S(=O)(=O)N3CCN(C)CC3)cc2F)nc2ccc(-c3cnn(C4CC4)c3)cn2c1=O :: 11%

Continue with the next compound.
Prompt line: Give measured Population Hoechst High Intensity Objects (%) for `Cc1c(P(=S)(c2ccccc2)c2ccccc2)n2ccccc2[n+]1C/C=C/c1ccccc1.[Br-]` (Fibroblast).
Response line: 7%
